All values here come from patent US8569344B2.

target: human α1G T-type channels (Homo sapiens); construct: expressed in transfected cells; host or cells: HEK 293; test: T-type calcium channel block, whole cell patch clamp in HEK cells (α1G); format: cell-based; details: HEK cells, patch clamp, mainly non-inactivated protocol; values above 10 μM shown as 10 μM, below 0.30 μM shown as 0.30 μM; read-out: T-type Calcium Channel Block α1G IC50
Sequence (O43497 whole entry): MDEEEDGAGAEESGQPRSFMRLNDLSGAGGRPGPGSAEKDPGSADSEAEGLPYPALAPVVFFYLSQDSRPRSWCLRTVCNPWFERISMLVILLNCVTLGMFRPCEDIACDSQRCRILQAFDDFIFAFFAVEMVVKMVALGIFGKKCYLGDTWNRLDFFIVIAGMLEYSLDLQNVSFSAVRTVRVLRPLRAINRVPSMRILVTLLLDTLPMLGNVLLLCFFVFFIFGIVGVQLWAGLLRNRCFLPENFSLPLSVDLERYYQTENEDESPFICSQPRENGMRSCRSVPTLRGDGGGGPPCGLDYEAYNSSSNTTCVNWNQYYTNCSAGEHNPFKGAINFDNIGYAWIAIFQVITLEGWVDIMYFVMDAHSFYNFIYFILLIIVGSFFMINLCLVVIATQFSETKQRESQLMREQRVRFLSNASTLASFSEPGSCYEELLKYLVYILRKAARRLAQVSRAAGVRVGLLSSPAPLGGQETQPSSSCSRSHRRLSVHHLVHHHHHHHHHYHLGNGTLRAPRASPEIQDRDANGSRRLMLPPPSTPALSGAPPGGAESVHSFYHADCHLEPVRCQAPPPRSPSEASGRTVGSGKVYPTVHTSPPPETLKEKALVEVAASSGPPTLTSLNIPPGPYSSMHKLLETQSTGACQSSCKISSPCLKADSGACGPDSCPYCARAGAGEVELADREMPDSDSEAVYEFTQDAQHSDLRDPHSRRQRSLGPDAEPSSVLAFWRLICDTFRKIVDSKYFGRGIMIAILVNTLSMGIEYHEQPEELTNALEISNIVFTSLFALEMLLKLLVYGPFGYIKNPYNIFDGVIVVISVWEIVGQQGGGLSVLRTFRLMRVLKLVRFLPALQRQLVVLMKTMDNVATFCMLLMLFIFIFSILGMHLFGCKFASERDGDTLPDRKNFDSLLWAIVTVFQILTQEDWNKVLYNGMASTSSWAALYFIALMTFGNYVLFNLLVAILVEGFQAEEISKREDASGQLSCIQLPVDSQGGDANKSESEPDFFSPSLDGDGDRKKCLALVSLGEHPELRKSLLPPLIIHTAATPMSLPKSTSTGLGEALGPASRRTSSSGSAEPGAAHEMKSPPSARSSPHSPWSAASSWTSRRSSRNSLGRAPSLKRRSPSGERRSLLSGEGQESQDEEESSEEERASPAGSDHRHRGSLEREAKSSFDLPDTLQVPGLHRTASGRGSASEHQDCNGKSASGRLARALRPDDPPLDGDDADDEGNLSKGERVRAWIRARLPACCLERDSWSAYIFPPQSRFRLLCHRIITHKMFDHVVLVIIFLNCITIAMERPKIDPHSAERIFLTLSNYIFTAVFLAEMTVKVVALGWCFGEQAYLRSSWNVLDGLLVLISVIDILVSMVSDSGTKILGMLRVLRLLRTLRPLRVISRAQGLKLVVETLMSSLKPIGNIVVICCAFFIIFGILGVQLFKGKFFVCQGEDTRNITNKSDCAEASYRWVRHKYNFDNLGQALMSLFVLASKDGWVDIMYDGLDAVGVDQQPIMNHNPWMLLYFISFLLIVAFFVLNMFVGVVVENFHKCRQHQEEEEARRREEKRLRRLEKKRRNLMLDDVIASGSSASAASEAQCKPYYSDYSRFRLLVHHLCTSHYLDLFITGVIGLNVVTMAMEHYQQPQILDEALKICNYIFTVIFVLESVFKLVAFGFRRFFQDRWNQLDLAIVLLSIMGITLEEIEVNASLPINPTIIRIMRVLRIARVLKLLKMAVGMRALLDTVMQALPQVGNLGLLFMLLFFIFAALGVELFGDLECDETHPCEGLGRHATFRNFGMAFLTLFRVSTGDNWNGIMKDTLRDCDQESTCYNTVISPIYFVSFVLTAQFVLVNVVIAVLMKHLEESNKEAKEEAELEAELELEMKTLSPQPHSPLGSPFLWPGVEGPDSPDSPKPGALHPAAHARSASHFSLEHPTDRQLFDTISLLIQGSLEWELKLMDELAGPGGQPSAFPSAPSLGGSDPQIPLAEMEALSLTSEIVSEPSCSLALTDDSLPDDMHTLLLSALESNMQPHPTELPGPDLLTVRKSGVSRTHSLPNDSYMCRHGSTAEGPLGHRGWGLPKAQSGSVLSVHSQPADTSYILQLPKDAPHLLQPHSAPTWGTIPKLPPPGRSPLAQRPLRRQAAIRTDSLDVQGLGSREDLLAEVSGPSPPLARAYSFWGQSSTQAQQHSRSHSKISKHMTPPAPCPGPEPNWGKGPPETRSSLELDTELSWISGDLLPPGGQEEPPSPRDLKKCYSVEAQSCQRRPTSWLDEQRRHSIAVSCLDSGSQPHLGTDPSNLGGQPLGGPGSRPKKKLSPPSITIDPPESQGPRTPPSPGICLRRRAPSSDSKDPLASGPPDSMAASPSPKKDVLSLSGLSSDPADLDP
pIC50: −log10 of the molar value.
measured metric: pIC50

Measured pIC50 of COc1cc(F)cc(C(=O)NCC2CCN(CC(=O)NC3(C)CCC3)CC2)c1 [Compound 477] : > 6.52

For CC(C)(C)OC(=O)NC1(C(=O)NCCN2CCC(CNC(=O)c3cc(F)cc(C(F)(F)F)c3)CC2)CCC1 [Compound 572] the compound record lists pIC50 as 6.31

// recorded pIC50 for C[C@H]1CC[C@H](NCC(=O)N2CCC(CNC(=O)c3cc(F)cc(C(F)(F)F)c3)CC2)CC1 [Compound 291] : > 6.52

Looking up O=C(NCC1CCN(CC(=O)N2CCC[C@H]2C(F)(F)F)CC1)c1cccc(Br)c1 [Compound 468] , I see its pIC50 listed as > 6.52

Kindly note the recorded pIC50 for COc1cc(F)cc(C(=O)NCC2CCN(CC(=O)N3CCC[C@H]3C(F)(F)F)CC2)c1 [Compound 465] , which is > 6.52

Input COc1cc(F)cc(C(=O)NCC2CCN(CCNS(=O)(=O)C(C)C)CC2)c1 [Compound 318] . Output pIC50: 6.30

According to the records, this compound CC(C)(C)S(=O)(=O)NCCN1CCC(CNC(=O)c2cccc(OC(F)(F)F)c2)CC1 [Compound 574] displays pIC50 of > 6.52

Value of pIC50 reported for the compound COc1ccc(C(=O)NCC2CCN(CCNS(=O)(=O)C3CC3)CC2)cc1OC [Compound 324] is < 5.00
